Tested On: 5-HT transporter (Rattus norvegicus, UniProt P31652)
Sequence (P31652 whole entry): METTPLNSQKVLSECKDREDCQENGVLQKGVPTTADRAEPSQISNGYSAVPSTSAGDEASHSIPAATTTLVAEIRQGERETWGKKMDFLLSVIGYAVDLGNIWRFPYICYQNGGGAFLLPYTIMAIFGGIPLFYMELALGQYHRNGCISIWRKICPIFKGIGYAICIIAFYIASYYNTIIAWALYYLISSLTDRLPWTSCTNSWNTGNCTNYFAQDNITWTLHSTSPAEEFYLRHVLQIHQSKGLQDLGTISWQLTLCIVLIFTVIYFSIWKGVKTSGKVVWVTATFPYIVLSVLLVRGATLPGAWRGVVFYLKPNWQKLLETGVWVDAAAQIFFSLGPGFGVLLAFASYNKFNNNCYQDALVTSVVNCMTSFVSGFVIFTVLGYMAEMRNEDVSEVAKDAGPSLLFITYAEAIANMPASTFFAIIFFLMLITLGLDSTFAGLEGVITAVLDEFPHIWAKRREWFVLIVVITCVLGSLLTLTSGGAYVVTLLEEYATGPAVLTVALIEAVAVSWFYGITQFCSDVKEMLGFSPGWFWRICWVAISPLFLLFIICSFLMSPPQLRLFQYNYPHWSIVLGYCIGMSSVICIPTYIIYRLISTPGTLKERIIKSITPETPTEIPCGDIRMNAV
Experimental Details: Inhibition of [^3 H]5-HT uptake in dissociated frontal cortex cells from fetal and adult rat brain
Setup Conditions: frontal cortex cells, fetal and adult rat brain
Doc: threshold 50 nM (exclusive). Items with IC50 beneath it return true (1); others return false (0).

>  <Compound>
CCC(=O)[C@H]1[C@@H](c2ccc3ccccc3c2)C[C@@H]2CC[C@H]1N2C (relative stereo) [WF-23]

>  <Tested On>
5-HT transporter (Rattus norvegicus, UniProt P31652)

>  <Answer Label>
true (1)

$$$$
>  <Compound>
CCC(=O)[C@H]1[C@@H](c2ccc(C)cc2)C[C@@H]2CC[C@H]1N2C (relative stereo) [WF-11]

>  <Tested On>
5-HT transporter (Rattus norvegicus, UniProt P31652)

>  <Answer Label>
false (0)

$$$$
>  <Compound>
CCc1ccc([C@H]2C[C@@H]3CC[C@H]([C@H]2C(C)=O)N3C)cc1 (relative stereo) [WF-9]

>  <Tested On>
5-HT transporter (Rattus norvegicus, UniProt P31652)

>  <Answer Label>
true (1)

$$$$
>  <Compound>
CCC(=O)[C@H]1[C@@H](c2ccc(C)c3ccccc23)C[C@@H]2CC[C@H]1N2C (relative stereo) [WF-27]

>  <Tested On>
5-HT transporter (Rattus norvegicus, UniProt P31652)

>  <Answer Label>
true (1)

$$$$
>  <Compound>
CCC(=O)[C@H]1[C@@H](c2cccc3ccccc23)C[C@@H]2CC[C@H]1N2C (relative stereo) [WF-30]

>  <Tested On>
5-HT transporter (Rattus norvegicus, UniProt P31652)

>  <Answer Label>
true (1)

$$$$
>  <Compound>
CC(=O)[C@H]1[C@@H](c2cccc3ccccc23)C[C@@H]2CC[C@H]1N2C (relative stereo) [WF-8]

>  <Tested On>
5-HT transporter (Rattus norvegicus, UniProt P31652)

>  <Answer Label>
true (1)

$$$$
>  <Compound>
CC(=O)[C@H]1[C@@H](c2ccc(C)cc2)C[C@@H]2CC[C@H]1N2C (relative stereo) [WF-4]

>  <Tested On>
5-HT transporter (Rattus norvegicus, UniProt P31652)

>  <Answer Label>
false (0)

$$$$
>  <Compound>
CCC(=O)[C@H]1[C@@H](c2ccc(C(C)C)cc2)C[C@@H]2CC[C@H]1N2C (relative stereo) [WF-31]

>  <Tested On>
5-HT transporter (Rattus norvegicus, UniProt P31652)

>  <Answer Label>
true (1)

$$$$

----------
Tested On: dopamine transporter (Rattus norvegicus)
Construct: was used to label dopamine transporters in rat striatal membranes; from tissue; host or cells: rat striatal membranes
Experimental Details: Inhibition of [3H]dopamine uptake into dissociated striatal cells from fetal and adult rat brain
Format: cell-based
Setup Conditions: 5-HT uptake IC50 / DA uptake IC50
Would you mind labelling by uptake ratio? At or over 10 is 1.0, under is 0.0.

>  <Compound>
CCc1ccc([C@H]2C[C@@H]3CC[C@H]([C@H]2C(C)=O)N3C)cc1 (relative stereo)

>  <Tested On>
dopamine transporter (Rattus norvegicus)

>  <Answer Label>
0.0

$$$$
>  <Compound>
CCC(=O)[C@H]1[C@@H](c2cccc3ccccc23)C[C@@H]2CC[C@H]1N2C (relative stereo)

>  <Tested On>
dopamine transporter (Rattus norvegicus)

>  <Answer Label>
0.0

$$$$
>  <Compound>
CCC(=O)[C@H]1[C@@H](c2ccc(C)cc2)C[C@@H]2CC[C@H]1N2C (relative stereo)

>  <Tested On>
dopamine transporter (Rattus norvegicus)

>  <Answer Label>
1.0

$$$$
>  <Compound>
CC(=O)[C@H]1[C@@H](c2ccc(C)cc2)C[C@@H]2CC[C@H]1N2C (relative stereo)

>  <Tested On>
dopamine transporter (Rattus norvegicus)

>  <Answer Label>
1.0

$$$$

----------
Tested On: UniProtKB P31652
Experimental Details: Displacement of [^3 H]paroxetine binding to 5-HT transporter sites in rat frontal cortex
Design: from tissue; host or cells: rat frontal cortex

>  <Molecule>
CCC(=O)C1C(c2ccc3ccccc3c2)CC2CCC1N2C (single isomer, unassigned)

>  <Ki>
0.000127 µM

$$$$
>  <Molecule>
CCC(=O)[C@@H]1[C@@H](c2ccc(C)cc2)C[C@@H]2CC[C@H]1N2C (relative stereo)

>  <Ki>
> 10 µM

$$$$
>  <Molecule>
CCC(=O)[C@H]1[C@@H](c2ccc3ccccc3c2)C[C@@H]2CC[C@H]1N2C (relative stereo)

>  <Ki>
0.00063 µM

$$$$
>  <Molecule>
CCC(=O)[C@@H]1[C@@H](c2ccc3cc(OC)ccc3c2)C[C@@H]2CC[C@H]1N2C (relative stereo)

>  <Ki>
0.206 µM

$$$$
>  <Molecule>
Cc1ccc([C@H]2C[C@@H]3CC[C@H]([C@@H]2C(=O)C(C)C)N3C)cc1 (relative stereo)

>  <Ki>
> 10 µM

$$$$
>  <Molecule>
CC(=O)[C@@H]1[C@@H](c2ccccc2)C[C@@H]2CC[C@H]1N2C (relative stereo)

>  <Ki>
> 10 µM

$$$$
>  <Molecule>
CC(=O)[C@@H]1[C@@H](c2ccc(C)cc2)C[C@@H]2CC[C@H]1N2C (relative stereo)

>  <Ki>
> 10 µM

$$$$
>  <Molecule>
CCC(=O)[C@@H]1[C@@H](CC)C[C@@H]2CC[C@H]1N2C (relative stereo)

>  <Ki>
> 10 µM

$$$$
>  <Molecule>
CCc1ccc([C@H]2C[C@@H]3CC[C@H]([C@@H]2C(C)=O)N3C)cc1 (relative stereo)

>  <Ki>
> 10 µM

$$$$
>  <Molecule>
CCC(=O)[C@H]1[C@@H](C2CCCCC2)C[C@@H]2CC[C@H]1N2C (relative stereo)

>  <Ki>
> 10 µM

$$$$

----------
Tested On: dopamine transporter (Rattus norvegicus)
Construct: was used to label dopamine transporters in rat striatal membranes; from tissue; host or cells: rat striatal membranes
Experimental Details: Inhibition of [3H]dopamine uptake into dissociated striatal cells from fetal and adult rat brain
Format: cell-based
Listed below: IC50 values for each entry.

>  <Compound>
CC(=O)[C@H]1[C@@H](c2ccc(C)cc2)C[C@@H]2CC[C@H]1N2C (relative stereo)

>  <Units>
nM

>  <IC50>
13.8

$$$$
>  <Compound>
CCC(=O)[C@@H]1[C@@H](c2ccc3ccccc3c2)C[C@@H]2CC[C@H]1N2C (relative stereo)

>  <Units>
nM

>  <IC50>
5.9

$$$$
>  <Compound>
CCC(=O)[C@H]1[C@@H](c2ccc(C)cc2)C[C@@H]2CC[C@H]1N2C (relative stereo)

>  <Units>
nM

>  <IC50>
2.21

$$$$
>  <Compound>
CCC(=O)[C@H]1[C@@H](c2ccc3ccccc3c2)C[C@@H]2CC[C@H]1N2C (relative stereo)

>  <Units>
nM

>  <IC50>
0.027

$$$$
>  <Compound>
CC(=O)[C@H]1[C@@H](c2cccc3ccccc23)C[C@@H]2CC[C@H]1N2C (relative stereo)

>  <Units>
nM

>  <IC50>
20.7

$$$$
>  <Compound>
CCC(=O)[C@H]1[C@@H](c2ccc(C)c3ccccc23)C[C@@H]2CC[C@H]1N2C (relative stereo)

>  <Units>
nM

>  <IC50>
260

$$$$

----------
Tested On: dopamine transporter (Rattus norvegicus, UniProt P23977)
Construct: was used to label dopamine transporters in rat striatal membranes; from tissue; host or cells: rat striatal membranes
Sequence (P23977 whole entry): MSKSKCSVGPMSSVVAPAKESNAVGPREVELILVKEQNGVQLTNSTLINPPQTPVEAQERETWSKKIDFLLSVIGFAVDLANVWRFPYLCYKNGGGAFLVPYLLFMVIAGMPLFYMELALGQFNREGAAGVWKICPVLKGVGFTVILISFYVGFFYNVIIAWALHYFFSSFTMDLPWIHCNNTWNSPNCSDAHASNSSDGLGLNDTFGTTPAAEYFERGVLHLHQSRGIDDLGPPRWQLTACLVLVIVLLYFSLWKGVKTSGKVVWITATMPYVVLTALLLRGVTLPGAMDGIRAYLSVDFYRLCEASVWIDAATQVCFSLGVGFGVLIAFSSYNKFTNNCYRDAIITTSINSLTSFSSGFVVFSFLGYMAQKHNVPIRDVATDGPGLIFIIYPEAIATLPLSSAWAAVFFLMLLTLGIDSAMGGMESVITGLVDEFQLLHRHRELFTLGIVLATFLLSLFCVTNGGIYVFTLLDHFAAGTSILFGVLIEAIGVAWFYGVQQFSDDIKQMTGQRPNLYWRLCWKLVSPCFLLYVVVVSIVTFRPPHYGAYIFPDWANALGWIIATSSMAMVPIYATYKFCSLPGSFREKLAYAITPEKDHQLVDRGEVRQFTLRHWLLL
Experimental Details: Displacement of [^125 I]RTI-55 binding to dopamine transporters in rat striatal membranes
Setup Conditions: 5-HT K1 / DA K1; higher numbers demonstrate relatively greater dopamine transporter potency

>  <Compound>
CCC(=O)[C@H]1[C@@H](c2ccc(C)cc2)C[C@@H]2CC[C@H]1N2C (relative stereo) [WF-11]

>  <binding ratio>
15.9

$$$$
>  <Compound>
CC(=O)[C@H]1[C@@H](c2ccc3ccccc3c2)C[C@@H]2CC[C@H]1N2C (relative stereo) [WF-32]

>  <binding ratio>
4.27

$$$$
>  <Compound>
CC(=O)[C@H]1[C@@H](c2ccc(F)cc2)C[C@@H]2CC[C@H]1N2C (relative stereo) [WF-7]

>  <binding ratio>
12.1

$$$$

----------
Tested On: dopamine transporter (Rattus norvegicus, UniProt P23977)
Construct: was used to label dopamine transporters in rat striatal membranes; from tissue; host or cells: rat striatal membranes
Experimental Details: Displacement of [^125 I]RTI-55 binding to dopamine transporters in rat striatal membranes
Setup Conditions: [^125 I]RTI-55 10-20 pM, rat striatal membranes
Assay Metric: Ki (nM)

>  <Compound>
CCC(=O)[C@@H]1[C@@H](CC)C[C@@H]2CC[C@H]1N2C (relative stereo) [WF-14]

>  <Tested On>
dopamine transporter (Rattus norvegicus, UniProt P23977)

>  <Units>
nM

>  <Limit Operator>
>

>  <Val>
50000

$$$$
>  <Compound>
CCC(=O)[C@H]1[C@@H](CC)C[C@@H]2CC[C@H]1N2C (relative stereo) [WF-18]

>  <Tested On>
dopamine transporter (Rattus norvegicus, UniProt P23977)

>  <Units>
nM

>  <Limit Operator>
>

>  <Val>
50000

$$$$
>  <Compound>
CCC(=O)[C@H]1[C@@H](c2ccc(C)cc2)C[C@@H]2CC[C@H]1N2C (relative stereo) [WF-11]

>  <Tested On>
dopamine transporter (Rattus norvegicus, UniProt P23977)

>  <Units>
nM

>  <Limit Operator>
=

>  <Val>
8.2

$$$$
>  <Compound>
Cc1ccc([C@H]2C[C@@H]3CC[C@H]([C@@H]2C(=O)C(C)C)N3C)cc1 (relative stereo) [WF-17]

>  <Tested On>
dopamine transporter (Rattus norvegicus, UniProt P23977)

>  <Units>
nM

>  <Limit Operator>
=

>  <Val>
2130

$$$$
>  <Compound>
CC(=O)[C@@H]1[C@@H](c2ccc(F)cc2)C[C@@H]2CC[C@H]1N2C (relative stereo) [WF-1]

>  <Tested On>
dopamine transporter (Rattus norvegicus, UniProt P23977)

>  <Units>
nM

>  <Limit Operator>
=

>  <Val>
929

$$$$
>  <Compound>
COC(=O)[C@H]1[C@@H](c2ccccc2)C[C@@H]2CC[C@H]1N2C (relative stereo) [WF-10]

>  <Tested On>
dopamine transporter (Rattus norvegicus, UniProt P23977)

>  <Units>
nM

>  <Limit Operator>
=

>  <Val>
98.8

$$$$
>  <Compound>
CCC(=O)C1C(c2ccc3ccccc3c2)CC2CCC1N2C (single isomer, unassigned) [WF-23(1)]

>  <Tested On>
dopamine transporter (Rattus norvegicus, UniProt P23977)

>  <Units>
nM

>  <Limit Operator>
=

>  <Val>
113

$$$$
>  <Compound>
CC(=O)[C@H]1[C@@H](c2ccc(C)cc2)C[C@@H]2CC[C@H]1N2C (relative stereo) [WF-4]

>  <Tested On>
dopamine transporter (Rattus norvegicus, UniProt P23977)

>  <Units>
nM

>  <Limit Operator>
=

>  <Val>
9.8

$$$$
>  <Compound>
CCC(=O)C1C(c2ccc3ccccc3c2)CC2CCC1N2C (single isomer, unassigned) [WF-23(2)]

>  <Tested On>
dopamine transporter (Rattus norvegicus, UniProt P23977)

>  <Units>
nM

>  <Limit Operator>
=

>  <Val>
0.032

$$$$
>  <Compound>
CC(=O)[C@@H]1[C@@H](c2ccc(C)cc2)C[C@@H]2CC[C@H]1N2C (relative stereo) [WF-3]

>  <Tested On>
dopamine transporter (Rattus norvegicus, UniProt P23977)

>  <Units>
nM

>  <Limit Operator>
=

>  <Val>
775

$$$$
